System: Trypanosoma brucei 6-phosphofructokinase (PFK)
Test: Confirmatory Assay to Find Inhibitors of T. brucei phosphofructokinase: High F6P
Conditions: Kinase-Glo luminescence; series mostly up to 57.5 µM
Description: Various species of the protozoan family Trypanosomatidae are responsible for a range of serious human diseases in tropical and subtropical areas of the world. […] Substrate buffer was dispensed into white, solid 1536-well plates at 3 uL/well in 0.1M triethanolamine (TEA) buffer, pH 8.0, containing final concentrations of 5 mM MgCl2 and 0.01% Tween20. […] The plates were measured on a ViewLux plate reader for luminescent signal using a clear filter with a one second exposure. […]
Results filed as inconclusive are left out. Activity calls are given as the source filed them. Calls follow the shape of the dose curve; as a rule, active = well fitted inhibition curve with a large enough effect; inconclusive = small, poorly fitted or top-dose-only effect; inactive = flat fitted curve, though single readings scatter.
readoutName: Potency

inputSmiles: Cc1cc(NS(=O)(=O)CCNC(=O)Cc2ccc(Cl)c(Cl)c2)no1
testedTarget: Trypanosoma brucei 6-phosphofructokinase (PFK)
readoutName: Potency
valueReported: inactive

inputSmiles: Cc1cc(NS(=O)(=O)C2CCN(C(=O)Cc3ccc(Cl)c(Cl)c3)CC2)no1
testedTarget: Trypanosoma brucei 6-phosphofructokinase (PFK)
readoutName: Potency
valueReported: inactive

inputSmiles: Cc1cc(NS(=O)(=O)c2ccc(NC(=O)Cc3ccc(Cl)c(F)c3)cc2)no1
testedTarget: Trypanosoma brucei 6-phosphofructokinase (PFK)
readoutName: Potency
valueReported: 8.19 µM (active)

inputSmiles: O=C(Cc1ccc(Cl)c(Cl)c1)Nc1ccc(S(=O)(=O)Nc2cccc(O)c2)cc1
testedTarget: Trypanosoma brucei 6-phosphofructokinase (PFK)
readoutName: Potency
valueReported: 14.6 µM (active)

For the next question, use this molecule.
Q) Test system Trypanosoma brucei 6-phosphofructokinase (PFK); read-out Potency; what value for `Cc1cc(NS(=O)(=O)c2ccc(NS(=O)(=O)Cc3ccc(Cl)c(Cl)c3)cc2)no1` ?
A) inactive
